Test system: Brassica rapa subsp. oleifera
Experiment: Herbicidal activity against Brassica rapa subsp. oleifera assessed as inhibition of fresh weed plant weight at 93.75 g/ha using post-emergence treatment protocol
Format: functional
readout: inhibition at 93.75 g/ha

Item: C=CCN1C(=O)COc2cc(F)c(-n3nnc4nn(CC=C)cc4c3=O)cc21 Test system: Brassica rapa subsp. oleifera Read-out: inhibition at 93.75 g/ha Value: ?
10.2%

Requested read-out inhibition at 93.75 g/ha, target or system Brassica rapa subsp. oleifera, entry C#CCN1C(=O)COc2cc(F)c(-n3nnc4nn(CC=C)cc4c3=O)cc21
0%

Find inhibition at 93.75 g/ha (Brassica rapa subsp. oleifera) for the entry C=CCN1C(=O)COc2cc(F)c(-n3nnc4c(cnn4CC=C)c3=O)cc21
19.6%

GET /values?readout=inhibition at 93.75 g/ha&system=Brassica rapa subsp. oleifera&item= C#CCN1C(=O)COc2cc(F)c(-n3nnc4c(cnn4CC=C)c3=O)cc21
18.5%

---

Target: Protoporphyrinogen IX oxidase (Zea mays)
Sequence (Q9M629 whole entry): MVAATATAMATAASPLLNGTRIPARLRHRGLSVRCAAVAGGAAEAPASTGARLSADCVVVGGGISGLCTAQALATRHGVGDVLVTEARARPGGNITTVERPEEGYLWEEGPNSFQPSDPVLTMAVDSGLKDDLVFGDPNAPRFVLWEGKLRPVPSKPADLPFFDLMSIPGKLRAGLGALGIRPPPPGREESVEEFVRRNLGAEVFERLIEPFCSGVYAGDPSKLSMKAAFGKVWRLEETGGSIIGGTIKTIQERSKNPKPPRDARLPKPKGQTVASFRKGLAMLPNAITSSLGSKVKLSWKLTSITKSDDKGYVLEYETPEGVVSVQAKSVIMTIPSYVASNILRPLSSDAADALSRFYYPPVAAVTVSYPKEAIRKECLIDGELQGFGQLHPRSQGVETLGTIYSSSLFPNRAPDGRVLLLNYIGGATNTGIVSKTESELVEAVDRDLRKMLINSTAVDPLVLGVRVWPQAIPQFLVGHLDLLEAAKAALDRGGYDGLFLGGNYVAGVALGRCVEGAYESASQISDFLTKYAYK
readout: IC50 (nM)
Your answer is read as nM, so omit the unit and give the number.

# IC50 lookup, item C#CCN1C(=O)COc2cc(F)c(N3C(=O)C4=C(CCCC4)C3=O)cc21
3.24

---

System: Echinochloa crus-galli
Test: Herbicidal activity against Echinochloa crus-galli (barnyard grass) assessed as inhibition of fresh weed plant weight at 187.5 g/ha using post-emergence treatment protocol
Type: functional
Assignment: determine reported inhibition at 187.5 g/ha for the given compounds.
API: value field is a number in %; no unit string.

Quick check: inhibition at 187.5 g/ha of C#CCN1C(=O)COc2cc(F)c(-n3nnc4nn(CC=C)cc4c3=O)cc21 ?
14.7

So what's the measured inhibition at 187.5 g/ha for this one? C=CCN1C(=O)COc2cc(F)c(-n3nnc4c(cnn4CCC)c3=O)cc21
1.5

# lookup: inhibition at 187.5 g/ha of C#CCOc1cc(-n2nnc3nn(CC=C)cc3c2=O)c(F)cc1Cl
0

For C#CCN1C(=O)COc2cc(F)c(-n3nnc4c(cnn4CCC)c3=O)cc21 , what is its reported inhibition at 187.5 g/ha?
0.5

# lookup: inhibition at 187.5 g/ha of C#CCOc1cc(-n2nnc3c(cnn3CC=C)c2=O)c(F)cc1Cl
7.3

# query: inhibition at 187.5 g/ha of entry C=CCN1C(=O)COc2cc(F)c(-n3nnc4nn(CC=C)cc4c3=O)cc21
2.8

Bench note: what inhibition at 187.5 g/ha did C=CCOc1cc(-n2nnc3c(cnn3CC=C)c2=O)c(F)cc1Cl show?
2.4
